# Target Of Assay: Cytochrome P450 3A4 (Homo sapiens)
# Sequence (P08684 whole entry): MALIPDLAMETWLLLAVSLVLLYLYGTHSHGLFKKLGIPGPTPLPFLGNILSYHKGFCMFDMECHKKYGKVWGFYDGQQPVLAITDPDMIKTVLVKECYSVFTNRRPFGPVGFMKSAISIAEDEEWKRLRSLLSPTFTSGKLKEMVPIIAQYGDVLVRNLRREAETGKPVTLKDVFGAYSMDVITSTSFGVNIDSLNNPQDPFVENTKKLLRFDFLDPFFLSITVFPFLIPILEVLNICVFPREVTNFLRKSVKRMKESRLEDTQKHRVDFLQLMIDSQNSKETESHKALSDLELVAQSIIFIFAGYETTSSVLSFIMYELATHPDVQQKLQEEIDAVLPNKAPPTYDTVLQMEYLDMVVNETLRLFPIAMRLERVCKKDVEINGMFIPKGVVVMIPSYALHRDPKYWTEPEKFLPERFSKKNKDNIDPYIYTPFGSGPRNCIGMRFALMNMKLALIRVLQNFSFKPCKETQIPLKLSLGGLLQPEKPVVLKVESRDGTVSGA
pIC50: −log10 of the molar value.
Test Readout: pIC50

P: COc1cccc(CNC(=O)c2c3n(c4c(N5CCN(CCc6ccc(F)c(F)c6)CC5)ncnc24)CCCC3)c1OC
Q: NC(=O)c1c2n(c3c(N4CCN(CCc5ccc(F)c(F)c5)CC4)ncnc13)CCCC2
Query string: Lab log: flag the item ( P or Q ) with the smaller pIC50 figure. Response format: the label of the selected entry.
Result string: Q
(Q: 4.34, P: 5.61)

----------
# Method Notes: Maximal plasma concentration in BALB/C mice after 20 mg/kg intravenous dose
# Assay type: ADME, organism-based
# Design: dose 20 mg/kg, route intravenous
# Condition Context: BALB/C, mouse, plasma
Test Readout: Cmax (µM)

O=C(Nc1cccnc1)c1c2n(c3c(N4CCN(CCc5ccc(F)c(F)c5)CC4)ncnc13)CCCC2
24.5

1: CCNC(=O)c1c2n(c3c(N4CCN(CCc5ccc(F)c(F)c5)CC4)ncnc13)CCCC2
2: O=C(NCc1ccccn1)c1c2n(c3c(N4CCN(CCc5ccc(F)c(F)c5)CC4)ncnc13)CCCC2
3: NC(=O)c1c2n(c3c(N4CCN(CCc5ccc(F)c(F)c5)CC4)ncnc13)CCCC2
Query string: Thanks in advance: please rank these 3 entries by Cmax, highest to lowest. # answer = labels listed in requested order
Result string: 3, 1, 2

----------
# Method Notes: Area under curve when injected intravenously in BALB/C mice at a dose of 20 mg/kg
# Assay type: ADME, organism-based
# Design: dose 20 mg/kg, route intravenous
# Condition Context: BALB/C, mouse, in vivo, iv
Test Readout: AUC (ng·h/mL)

Guide cases for AUC, answers given:
CCNC(=O)c1c2n(c3c(N4CCN(CCc5ccc(F)c(F)c5)CC4)ncnc13)CCCC2
16900
NC(=O)c1c2n(c3c(N4CCN(CCc5ccc(F)c(F)c5)CC4)ncnc13)CCCC2
25000

1: O=C(Nc1cccnc1)c1c2n(c3c(N4CCN(CCc5ccc(F)c(F)c5)CC4)ncnc13)CCCC2
2: O=C(NCc1ccccn1)c1c2n(c3c(N4CCN(CCc5ccc(F)c(F)c5)CC4)ncnc13)CCCC2
Query string: Hi, I'm comparing 1 with 2 and wondering which one has the bigger number for AUC. Any idea? Response format: the label of the selected entry.
Result string: 1

----------
# Method Notes: Maximal plasma concentration in BALB/C mice after 50 mg/kg oral dose
# Type: ADME, organism-based
# Design: dose 50 mg/kg, route oral
# Condition Context: mouse
Test Readout: Cmax (µM)

CCNC(=O)c1c2n(c3c(N4CCN(CCc5ccc(F)c(F)c5)CC4)ncnc13)CCCC2
5.73

A: NC(=O)c1c2n(c3c(N4CCN(CCc5ccc(F)c(F)c5)CC4)ncnc13)CCCC2
B: O=C(Nc1cccnc1)c1c2n(c3c(N4CCN(CCc5ccc(F)c(F)c5)CC4)ncnc13)CCCC2
Query string: Decide: A or B , by lowest recorded Cmax. Pick one; state its label.
Result string: A
(A: 8.37 µM, B: 14.3 µM)

----------
# Tested on: Mus musculus
# Method Notes: Maximal plasma concentration in BALB/C mice after 20 mg/kg intravenous dose
# Type: ADME, organism-based
# Parameters: dose 20 mg/kg, route intravenous
# Condition Context: in vivo
Test Readout: Cmax (µM)
Give just the numeric value; µM need not be written.

Query string: For Mus musculus, provide Cmax of COc1cccc(CNC(=O)c2c3n(c4c(N5CCN(CCc6ccc(F)c(F)c6)CC5)ncnc24)CCCC3)c1OC please.
Result string: 4
